Sourced from ChEMBL document CHEMBL1135768

- Tested on: Substance-P receptor (Oryctolagus cuniculus)
- Test details: Tested for the binding affinity towards tachykinin receptor 1 (NK1) in rabbit pulmonary artery tissue
Field: pKB. Provide a value for each of the compounds that follow.
Answers are plain numbers.

Guide cases for pKB, answers given:
Q: Tell me reported pKB for CN(C[C@@H](CCN1CCC(c2ccc(O)cc2[S+](C)[O-])CC1)c1ccc(Cl)c(Cl)c1)C(=O)c1cc(C#N)cc2ccccc12 (mixture of isomers) , tested with Substance-P receptor (Oryctolagus cuniculus).
Ans: 8.93

Q: How about CNC(=O)C1(N2CCCNC2=O)CCN(CC[C@H](CN(C)C(=O)c2c(OC)c(C#N)cc3ccccc23)c2ccc(Cl)c(Cl)c2)CC1 ?
Ans: 8.14

Q: Same again, this time with COC(=O)c1ccc(C2CCN(CC[C@H](CN(C)C(=O)c3c(OC)c(C#N)cc4ccccc34)c3ccc(Cl)c(Cl)c3)CC2)c([S+](C)[O-])c1 (stereo partly drawn)
Ans: 8.85

Q: How about this compound: COC(=O)c1ccc(C2CCN(CC[C@H](CN(C)C(=O)c3cc(C#N)cc4ccccc34)c3ccc(Cl)c(Cl)c3)CC2)c([S+](C)[O-])c1 (mixture of isomers)
Ans: 7.92

Q: Repeat for the following compound: CN(C[C@@H](CCN1CCC(c2cc(F)ccc2[S+](C)[O-])CC1)c1ccc(Cl)c(Cl)c1)C(=O)c1cc(C#N)cc2ccccc12 (mixture of isomers)
Ans: 8.26

Q: Moving on to the next compound: CN(C[C@@H](CCN1CCC(c2c(F)cccc2[S+](C)[O-])CC1)c1ccc(Cl)c(Cl)c1)C(=O)c1cc(C#N)cc2ccccc12 (stereo partly drawn)
Ans: 7.25

Q: # iterate: CN(C)C(=O)C1(N2CCCCC2=O)CCN(CC[C@H](CN(C)C(=O)c2cc(C#N)cc3ccccc23)c2ccc(Cl)c(Cl)c2)CC1
Ans: 7.36

Q: Repeat for the following compound: CN(C[C@@H](CCN1CCC(c2ccccc2[S@+](C)[O-])CC1)c1ccc(Cl)c(Cl)c1)C(=O)c1cc(C#N)cc2cc(C#N)ccc12
Ans: 7.77

Q: Entry to check: CNC(=O)C1(N2CCOCC2=O)CCN(CC[C@H](CN(C)C(=O)c2c(OC)c(C#N)cc3ccccc23)c2ccc(Cl)c(Cl)c2)CC1
Ans: 8.55

Q: And the next one, CNC(=O)C1(N2CCCNC2=O)CCN(CC[C@H](CN(C)C(=O)c2cc(C#N)cc3ccccc23)c2ccc(Cl)c(Cl)c2)CC1 ?
Ans: 7.6

// each listed compound needs a value for pKB
1. CN(C[C@@H](CCN1CCC(c2ccc(F)cc2[S@+](C)[O-])CC1)c1ccc(Cl)c(Cl)c1)C(=O)c1cc(C#N)cc2ccccc12
2. CN(C[C@@H](CCN1CCC(c2ccccc2[S@+](C)[O-])CC1)c1ccc(Cl)c(Cl)c1)C(=O)c1cc(C#N)c(F)c2ccccc12
3. CNC(=O)C1(N2CCCCC2=O)CCN(CC[C@H](CN(C)C(=O)c2c(OC)c(C#N)cc3ccccc23)c2ccc(Cl)c(Cl)c2)CC1

Ans:
[8.01, 6.75, 8.7]

* * *

- Test system: Substance-P receptor (Oryctolagus cuniculus)
- Test details: Tested for the binding affinity towards tachykinin receptor 1 (NK1) in rabbit pulmonary artery tissue
Please respond with reported pKB for every item in the list.
Give bare numbers.

In the examples that follow, each entry is paired with its recorded pKB.
Q: Dear colleague, I am looking for the recorded pKB of the following compound: Cc1c(C#N)cc(C(=O)N(C)C[C@@H](CCN2CCC(c3ccccc3[S@+](C)[O-])CC2)c2ccc(Cl)c(Cl)c2)c2ccccc12
Ans: 8.53

Q: CNC(=O)C1(N2CCOCC2=O)CCN(CC[C@H](CN(C)C(=O)c2cc(C#N)cc3ccccc23)c2ccc(Cl)c(Cl)c2)CC1 , same question.
Ans: 7.51

Proceeding to the next compound to report its pKB.
Q: Data request, read-out pKB, for COc1ccc2c(C(=O)N(C)C[C@@H](CCN3CCC(c4ccccc4[S@+](C)[O-])CC3)c3ccc(Cl)c(Cl)c3)cc(C#N)cc2c1
Ans: 7
